measured_property: chromatographic logP

q: Data request, read-out chromatographic logP, for COC(=O)C(=COCF)c1ccccc1COc1ccn(-c2ccc(Cl)cc2)n1 [Example 1]
a: 3.91
